# System: iNOS gene
# measurementProtocol: iNOS expression in LPS-treated primary peritoneal macrophages by real-time PCR, LXR ligands
# Assay type: cell-based, mouse
# protocolConditions: oxysterols 5 μM, LPS, 6 h; less potently than GW3965 1 μM where active (FIG. 14 upper)
# Protocol: Thioglycollate-elicited macrophages were isolated by peritoneal lavage 3 days following peritoneal injection of 2.5 ml 3% thioglycollate (DIFCO). Cells were plated in RPMI medium 1640 and 10% fetal bovine serum. After 5 h the medium was removed and cells were fed with fresh medium. For RNAi experiments, smart-pool siRNAs (Dharmacon) against NCoR and Ubc9 were transfected into primary macrophages using lipofectamine 2000 (Invitrogen), incubated for 48 h and validated by Q-PCR and Western Blotting. […]
experimentalEndpoint: repression of iNOS activation

CC(C)CC[C@@H](O)[C@@H](C)[C@H]1CC[C@H]2[C@@H]3CC=C4C[C@@H](O)CC[C@]4(C)[C@H]3CC[C@]12C [22R-hydroxycholesterol] : repress iNOS activation
C[C@H](CC[C@@H]1OC1(C)C)[C@H]1CC[C@H]2[C@@H]3CC=C4C[C@@H](O)CC[C@]4(C)[C@H]3CC[C@]12C [24(S), 25-epoxycholesterol] : repress iNOS activation
CC(C)C(O)CC[C@@H](C)[C@H]1CC[C@H]2[C@@H]3CC=C4C[C@@H](O)CC[C@]4(C)[C@H]3CC[C@]12C (some centres unmarked) [24-hydroxycholesterol] : repress iNOS activation

Origin of the recorded values: patent US8241863B2
